Measured viscosity by item
- condition.notes: 313.2 K; 101.33 kPa; Liquid; Cone and plate viscometry
measurement.label: viscosity (mPa·s)

1) CC(=O)[O-].OCC[NH2+]CCO [2,2'-azanediylbis(ethanol) acetate] ... 183.97
2) CC(=O)[O-].C[NH+](CCO)CCO [N-methyldiethanolammonium acetate] ... 83.56
3) CC(O)C(=O)O.OCCNCCO [diethanolamine lactate] ... 110.25
4) CC(=O)[O-].[NH3+]CCO [2-hydroxyethylammonium acetate] ... 120.26
5) CC(O)C(=O)[O-].[NH3+]CCO (stereo not given) [2-hydroxyethylammonium lactate] ... 100.02
